# target-desc: LPA2 (Homo sapiens)
# Construct: expressed in transfected cells
# Sequence (Q9HBW0 whole entry, species assumed): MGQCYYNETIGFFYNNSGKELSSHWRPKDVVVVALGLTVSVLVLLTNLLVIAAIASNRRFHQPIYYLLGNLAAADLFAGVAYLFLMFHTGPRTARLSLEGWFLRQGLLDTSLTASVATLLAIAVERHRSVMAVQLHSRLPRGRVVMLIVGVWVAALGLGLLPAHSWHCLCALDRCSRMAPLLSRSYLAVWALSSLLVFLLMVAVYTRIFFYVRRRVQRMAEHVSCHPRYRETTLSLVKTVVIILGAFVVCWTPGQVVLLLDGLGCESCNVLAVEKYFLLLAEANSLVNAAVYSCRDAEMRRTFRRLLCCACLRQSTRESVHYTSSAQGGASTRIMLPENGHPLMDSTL
# protocol-text: Ca2+ mobilization assay, antagonist activity at LPA2
# Format: cell-based
Would you kindly list Emax at 10 µM for each of these compounds?
Answer with the number, then the unit.

The reported Emax at 10 µM of the compound O=C(O)COc1ccc(-c2cc[nH]n2)c(O)c1 was 7%

Memo: Cc1[nH]nc(-c2ccc(O)cc2O)c1Oc1ccc(Cl)cc1Cl , reported Emax at 10 µM: 16%

GET /value?item= O=C(O)COc1ccc(-c2n[nH]cc2Oc2ccc(Cl)cc2Cl)c(O)c1 &field=Emax at 10 µM returns 35%

Measured Emax at 10 µM of Cc1[nH]nc(-c2ccc(OCCC(=O)O)cc2O)c1Oc1ccc(Cl)cc1Cl : 67%

Given item Cc1[nH]nc(-c2ccc(OCC(=O)O)cc2O)c1Oc1ccccc1Cl , the value recorded as its Emax at 10 µM is 48%

Value of measured Emax at 10 µM for the entry Cc1noc(-c2ccc(CSCCC(=O)O)cc2)c1NC(=O)OC(C)c1ccccc1Cl (stereo not drawn) [Ki16425, reference compound] : 92%

Entry Cc1[nH]nc(-c2ccc(OCCCC(=O)O)cc2O)c1Oc1ccc(Cl)cc1Cl , Emax at 10 µM reported as 43%

Notebook: COc1ccc(-c2n[nH]c(C)c2Oc2ccc(Cl)cc2Cl)c(O)c1 , Emax at 10 µM read as 9%

Record Cc1[nH]nc(-c2ccc(OCC(=O)O)cc2O)c1Oc1ccc(Cl)c(Cl)c1 , field Emax at 10 µM: 58%
